tested on: PAK4; conditions: concentration: 1 μM, replicates: in singlicate; n = 1;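 further: KINOMEscan kinase panel screen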
Provide the recorded %Inh for the entries that follow.
Value expressed in %; do not type the unit.

So what does the record say about %Inh for CNc1nc(-c2ccc3c(N)n[nH]c3c2)cc(N2C[C@@H](C(=O)NC3CCCCC3)OC[C@H]2C)n1 ?
0

Next entry: CNCc1ccc2nc(NC(=O)c3ccc(C(C)(C)C)cc3)cn2c1
4

Also check COc1ccc(CSc2nnc(-c3ccc4nccn4c3)o2)cc1C(F)(F)F
16

Moving on to Fc1ccc(-c2nc3n(c2-c2ccncc2)CCS3)cc1
0

Next molecule up: c1ccc(-c2ccnc3[nH]ccc23)cc1
0

Please do the same for CCc1ccc(-c2ccc3c(c2)-c2n[nH]cc2S(=O)(=O)N3C)cc1 as well.
0

Repeat with CNC(=O)c1ccc(C)c(-n2c(C)cc(OCc3ccc(F)cc3F)c(Br)c2=O)c1
0

Quick one: CCn1c(-c2c(N)noc2C)nc2cnccc21
0

Moving on to the next molecule: COc1ccc(Nc2nccc(-c3ccc(NC(=O)c4cc5cc(F)ccc5[nH]4)cc3)n2)cc1
0

Now this one: Cn1cncc1C(=O)NC1CCN(c2ccnc(Nc3ccc(F)cc3)n2)C1 (centres unmarked)
0

Repeat for the following molecule: Cn1cnc2c(N)ncnc21
0

What about COc1ccc2cc(-c3nc(-c4ccccc4C(C)C)[nH]c3-c3ccncc3)ccc2c1 ?
0

O=C1NC(=O)C(c2ccc(Cl)cc2)=C1Nc1ccc(O)cc1 ?
0

Similarly, CCn1c(-c2ccccc2)nc2cnccc21 ?
0

What do you have for Cc1cccc2c(-c3ccncn3)c(-c3ccc(F)cc3)nn12 ?
0

Then this molecule: O=C1NC(=O)C(c2ccc(Cl)cc2)=C1Nc1cccc(Cl)c1
18

Now this one: Nc1nccc(-c2c(-c3ccc(F)cc3)ncn2C2CCN(Cc3ccccc3)CC2)n1
0

Now the same for COc1ccc(CSc2nnc(-c3ccc4ncsc4c3)o2)cc1C(F)(F)F
0

Would you kindly repeat that for Cc1ccc(NC(=O)c2ccc(Cl)cc2)cc1-c1ccc(C(=O)Nc2ccncc2)cc1 ?
0

Here is the next molecule: CC(C)c1cc(-c2ccc3c(N)n[nH]c3c2)nc(N)n1
0

----------
test system: CHEK1; conditions: concentration: 1 μM, replicates: in singlicate; n = 1
Field: label. Allowed values: true (1) (%Inh < 2%) or false (0) (%Inh >= 2%).

# check: %Inh < 2% for Nc1nccc(-c2c(-c3ccc(F)cc3)ncn2C2CCN(Cc3ccccc3)CC2)n1 [SB-219980]
true (1)

Follow-up item: CCn1c(-c2c(N)noc2C)nc2cnccc21 [SB-737856]
true (1)

Can you check COC(=O)C(Cc1ccccc1)NC(=O)NC1CCN(c2ccnc(Nc3ccc(F)cc3)n2)C1 (stereo not drawn) [GSK1379714] next?
false (0)

Next molecule up: COC(=O)C(NC(=O)NC1CCN(c2ccnc(Nc3ccc(F)cc3)n2)C1)c1ccccc1 (stereo not drawn) [GSK1379712]
false (0)

And the next one, COc1cc2ncnc(Nc3cccc(Br)c3)c2cc1OC.Cl [GI230329] ?
true (1)

Entry O=C(Nc1n[nH]c2nc(-c3cccs3)c(Br)cc12)C1CCCC1 [SB-743341] please
false (0)

Note, next up: NS(=O)(=O)c1cccc(N/C=C2\C(=O)Nc3ccc(S(=O)(=O)Cc4c(Cl)cccc4Cl)cc32)c1 [GSK398099]
false (0)

Now the molecule Cc1c(Cn2c3ccccc3n3c(=O)cc(N4CCOCC4)nc23)cccc1C(F)(F)F [GSK2306394]
false (0)

Record: CC(=O)c1cccc(NC(=O)NC2CCN(c3ccnc(Nc4ccc(F)cc4)n3)C2)c1 (stereo not drawn) [GSK1379710]
false (0)

Another molecule: Cl.Cl.Cl.N#Cc1ccc(CCNc2nccc(-c3cccc(CN4CCNCC4)c3)n2)cc1 [GSK2137462]
true (1)

Further, for Fc1ccc(-c2nc3n(c2-c2ccncc2)CCS3)cc1 [GI98581] ?
true (1)

Here is the next molecule: Cn1cncc1C(=O)NC1CCN(c2ccnc(Nc3ccc(F)cc3)n2)C1 (stereo not drawn) [GSK1379717]
true (1)

Here is the next molecule: O=c1cc(N2CCOCC2)nc2n(Cc3ccccc3F)ccn12 [GSK2297428]
false (0)

Can you check Cc1ccc(NC(=O)Nc2ccc(Cl)c(C(F)(F)F)c2)cc1-c1ccc(C(=O)Nc2ccncc2)cc1 [GSK1398470] next?
true (1)

Moving on to the next molecule: O=C(Nc1n[nH]c2nc(-c3cccs3)c(Br)cc12)C1CC1 [SB-735297]
true (1)

Another molecule: COc1cccc(NC(=O)Nc2ccc(C)c(-c3ccc(C(=O)Nc4ccncc4)cc3)c2)c1 [GSK1398474]
false (0)

Consider next the molecule Cc1ccc(NC(=O)Nc2ccccc2)cc1-c1ccc(C(=O)Nc2ccncc2)cc1 [GSK1398471] in the same way.
true (1)

----------
Can you tell me %Inh for the items I'm about to list?
tested on: CSNK1G1; settings: concentration: 1 μM, replicates: in singlicate; n = 1
Number in %, nothing else.

Bench note: what %Inh did COc1ccc(Nc2nccc(N3CCC(NC(=O)C(C)c4ccc(Cl)cc4)CC3)n2)cc1 (stereo not shown) [GSK1379812] show?
7

Now the same for NS(=O)(=O)c1cccc(N/C=C2\C(=O)Nc3ccc(S(=O)(=O)Cc4c(Cl)cccc4Cl)cc32)c1 [GSK398099]
12

Can you handle Cn1cncc1C(=O)NC1CCN(c2ccnc(Nc3ccc(F)cc3)n2)C1 (stereo not shown) [GSK1379717] next?
0

Try this compound next: O=C1NC(=O)C(c2ccc(Cl)cc2)=C1Nc1cccc(Cl)c1 [SB-317651]
0

Subsequent entry: CC(=O)c1c(C)c2cnc(Nc3ccc(N4CCNCC4)cn3)nc2n(C2CCCC2)c1=O
0

Another: CS(=O)(=O)CCNCc1nc(-c2ccc3ncnc(Nc4ccc(OCc5ccccc5)c(Cl)c4)c3c2)cs1.Cl [GW582764]
0

Next compound up: Cc1ccc(NC(=O)Nc2ccccc2F)cc1-c1ccc(C(=O)Nc2ccncc2)cc1 [GSK1398477]
18

Param item: COc1nccc(-c2c(-c3ccc(F)cc3)ncn2CCCN2CCOCC2)n1 [SB-282852]
0

Now consider COc1ccc(CSc2nnc(-c3ccc4nccn4c3)o2)cc1C(F)(F)F .
15

One more compound: CNC(=O)c1ccc(C)c(-n2c(C)cc(OCc3ccc(F)cc3F)c(Br)c2=O)c1
0

Next entry: O=c1cc(N2CCOCC2)nc2n(Cc3cccc(Cl)c3Cl)c3ccccc3n12 [GSK2299009]
8

Query COc1cccc(CNC(=O)NC2CCN(c3ccnc(Nc4ccc(F)cc4)n3)C2)c1 (stereo not shown) [GSK1379723] next
0

What would you report for O=C(Nc1n[nH]c2cc(-c3ccsc3)ccc12)C1CC1 [SB-732932] ?
24

Cool, now COC(=O)c1cccc(NC(=O)NC2CCN(c3ccnc(Nc4ccc(F)cc4)n3)C2)c1 (stereo not shown) [GSK1379725]
0

Also CC(C)c1cc(-c2ccc3c(N)n[nH]c3c2)nc(N)n1 [GSK2250882] ?
10

Again, but for Fc1ccc(-c2nc[nH]c2-c2ccncc2)cc1 [SB-217360]
5

Here is the next compound: Cn1cncc1-c1cc2c(Nc3ccc(OCc4ccccc4)cc3)ncnc2cn1 [GW281179]
9

Please answer likewise for O=c1cc(N2CCOCC2)nc2n(Cc3ccccc3F)ccn12 [GSK2297428]
9

What about this compound? Cc1ccc(NC(=O)Nc2ccc(Cl)c(C(F)(F)F)c2)cc1-c1ccc(C(=O)Nc2ccncc2)cc1 [GSK1398470]
11

# iterate: COc1ccc(CSc2nnc(-c3ccc4c(c3)CCO4)o2)cc1
0

Now this one: COc1ccc2cc(-c3nc(-c4ccccc4C(C)C)[nH]c3-c3ccncc3)ccc2c1 [SB-660566]
10

Then this compound: CNc1cc(-c2ccc3c(N)n[nH]c3c2)nc(N)n1 [GSK2224810]
7

----------
system: MAK; conditions: concentration: 1 μM, replicates: in singlicate; n = 1
Threshold check on %Inh: strictly below 20% is condition met; on or above 20% is condition not met.

Please check: %Inh for COc1cccc(CNC(=O)NC2CCN(c3ccnc(Nc4ccc(F)cc4)n3)C2)c1 (stereo not shown) , strictly under 20% or not?
condition not met

Same lookup for O=C1NC(=O)C(c2ccc(Cl)cc2)=C1Nc1ccc(O)cc1 , please.
condition met

Another: CC(C)c1ccc(O)cc1Nc1ccnc2ccc(C(F)(F)F)cc12
condition not met

Continue with COc1ccc(CSc2nnc(-c3ccc4ncsc4c3)o2)cc1C(F)(F)F
condition met

Then this molecule: CNc1cc(-c2ccc3c(N)n[nH]c3c2)nc(N)n1
condition met

// same read-out, input: O=c1cc(N2CCOCC2)nc2n(Cc3cccc(Cl)c3Cl)c3ccccc3n12
condition met

Repeat with CNCc1ccc2nc(NC(=O)c3ccc(C(C)(C)C)cc3)cn2c1
condition met

Param item: COc1ccc(Nc2nccc(N3CCC(NC(=O)c4cc5ccccc5s4)C3)n2)cc1 (stereo not shown)
condition not met

What about CS(=O)(=O)CCNCc1nc(-c2ccc3ncnc(Nc4ccc5c(cnn5Cc5ccccc5)c4)c3c2)cs1.Cl.Cl ?
condition met

Try the molecule Cc1ccc(-c2nc(Nc3ccncc3)c3ccccc3n2)s1
condition not met

Then what about the molecule CSc1ccc(-c2nc3n(c2-c2ccncc2)CCC3)cc1 ?
condition met

Request: Cn1cncc1C(=O)NC1CCN(c2ccnc(Nc3ccc(F)cc3)n2)C1 (stereo not shown)
condition not met

Moving on to the next molecule: Cc1ccccc1-c1cc(-c2c[nH]nc2-c2ccccn2)ccn1
condition not met

Same for O=C1NC(=O)C(c2ccc(Cl)cc2)=C1Nc1cccc(Cl)c1
condition met

And what about the molecule O=c1cc(N2CCOCC2)nc2n(Cc3ccccc3F)ccn12 ?
condition met

Note, next up: Cc1c(Cn2c(C)c(C)n3c(=O)cc(N4CCOCC4)nc23)cccc1C(F)(F)F
condition met

Cool, now Cc1nccc(-c2c(-c3ccc(F)cc3)ncn2CCCN2CCOCC2)n1.Cl
condition not met

Request: CCCCc1nn2ncccc2c1-c1ccnc(NC2CC2)n1
condition met

Param item: CC(=O)c1c(C)c2cnc(Nc3ccc(N4CCNCC4)cn3)nc2n(C2CCCC2)c1=O
condition met
